cell viability for assorted molecules
# Tested on: U2OS
# Protocol Text: cell viability relative to DMSO; higher = less toxic
# Run Conditions: 72 h; 10000 nM
Expressed in %, but write only the number.

Exercise: Look up and report measured cell viability for this entry: NC1(C(=O)N[C@@H](CCO)c2ccc(Cl)cc2)CCN(c2ncnc3[nH]ccc23)CC1 [AZD5363]
Solution: 57.5

* * *

# System: Calu-3
# Protocol Text: cell viability relative to DMSO; higher = less toxic
# Run Conditions: 72 h; 1000 nM
Assay Readout: cell viability (%)
Expressed in %, but write only the number.

// solved cases for cell viability follow
Compound | Measured On | cell viability / %
CC(C)Nc1cccnc1N1CCN(C(=O)c2cc3cc(NS(C)(=O)=O)ccc3[nH]2)CC1 [delavirdine] | Calu-3 | 90.5
Cc1cc(NC(=O)NCCN2CCC(O)(Cc3ccccc3)CC2)c2ccccc2n1 [palosuran] | Calu-3 | 100
COc1cc2c(CCNC(C)=O)c[nH]c2cc1Cl [6-chloromelatonin] | Calu-3 | 105

Exercise: Look up and report measured cell viability for this entry: Cc1nc(NC(=O)N2CCC[C@H]2C(N)=O)sc1-c1ccnc(C(C)(C)C(F)(F)F)c1 [alpelisib]
Solution: 60.8

* * *

# System: HepG2
# Protocol Text: drug sensitivity score (DSS) for viability; higher = more toxic; extreme values may be limits of the assay
# Run Conditions: 72 h
Assay Readout: drug sensitivity score
Write the number on its own, no unit after it.

// solved cases for drug sensitivity score follow
Compound | Readout Value
CC(C)(O)c1coc(S(=O)(=O)NC(=O)Nc2c3c(cc4c2CCC4)CCC3)c1 | 0
N#Cc1c(N)nc(SCC(N)=O)c(C#N)c1-c1ccc(OCC2CC2)cc1 | 0

Exercise: Look up and report measured drug sensitivity score for this entry: C[C@@H](CN(C)C)CN1c2ccccc2Sc2ccccc21 (racemic)
Solution: 1

Exercise: Look up and report measured drug sensitivity score for this entry: C[N+]1(C)[C@@H]2C[C@@H](OC(=O)[C@H](CO)c3ccccc3)C[C@H]1[C@@H]1O[C@@H]12
Solution: 0

Exercise: Look up and report measured drug sensitivity score for this entry: CCN1C[C@]2(OC(=O)c3ccccc3NC(C)=O)CC[C@H](OC)[C@@]34[C@@H]2C[C@@H]([C@@H]13)[C@@]1(O)C[C@H](OC)[C@H]2C[C@@H]4[C@]1(O)[C@H]2OC
Solution: 0

Exercise: Look up and report measured drug sensitivity score for this entry: O=C(CCCN1CCC(O)(c2ccc(Br)cc2)CC1)c1ccc(F)cc1
Solution: 0.8

Exercise: Look up and report measured drug sensitivity score for this entry: O=C1OC2(c3ccc(O)cc3Oc3cc(O)ccc32)c2ccccc21
Solution: 0

Exercise: Look up and report measured drug sensitivity score for this entry: N=C(N)N/N=C/c1c(Cl)cccc1Cl [guanaben-acetate]
Solution: 0

* * *

# System: Vero E6
# Protocol Text: cell viability relative to DMSO; higher = less toxic
# Run Conditions: 72 h; 10 nM
cell viability for assorted molecules
Expressed in %, but write only the number.

// solved cases for cell viability follow
Molecule | cell viability / %
COc1cc2nc(N3CCN(C(=O)C4CCCO4)CC3)nc(N)c2cc1OC (stereo not given) | 95.4
CC(=O)N[C@H]1[C@@H](O)[C@H](O)[C@@H](CO)O[C@@H]1O | 95.9
CCOC(=O)[C@H](CCc1ccccc1)N[C@H]1CCc2ccccc2N(CC(=O)O)C1=O | 104
Cc1cc(C(C)(C)CC(C)(C)C)ccc1OCCOCC[N+](C)(C)Cc1ccccc1 [methylbenzethonium-chloride] | 98.5

Would you kindly look at the next entry?
Exercise: Look up and report measured cell viability for this entry: CC=C1C(=O)C[C@H]2[C@@H]3CCC4=CC(=O)CC[C@]4(C)[C@H]3CC[C@]12C
Solution: 108
